Recorded solubility split into classes low bin: < 50 mM; mid bin: ≥ 50 mM and < 200 mM; high bin: ≥ 200 mM

[[record]]
molecule = "C=CCc1ccc(OCC(=O)O)c(OC)c1"
class_assignment = "low bin"

[[record]]
molecule = "CCCC(Br)C(=O)NC(N)=O (stereo unspecified)"
class_assignment = "low bin"

[[record]]
molecule = "O=S(=O)(CCCl)CCOCCS(=O)(=O)CCCl"
class_assignment = "low bin"

[[record]]
molecule = "CC(C)[C@@H]1NC(=O)CNC1=O"
class_assignment = "mid bin"

[[record]]
molecule = "CCCCOCCOC(N)=O"
class_assignment = "high bin"

[[record]]
molecule = "CCCSS(=O)CCC (stereo unspecified)"
class_assignment = "mid bin"

[[record]]
molecule = "CC(C)CC(c1ccc(O)cc1)c1ccc(O)cc1"
class_assignment = "low bin"

[[record]]
molecule = "CC(C)C=CCC(=O)O"
class_assignment = "mid bin"

[[record]]
molecule = "CC(C)CC1OCCO1"
class_assignment = "high bin"

[[record]]
molecule = "O=C(NCCc1c[nH]cn1)c1ccccc1"
class_assignment = "high bin"

[[record]]
molecule = "Cn1cnc2nc(Cl)nc(NN)c21"
class_assignment = "mid bin"

[[record]]
molecule = "CCS(=O)(=O)CCSP(=S)(OC)OC"
class_assignment = "low bin"

[[record]]
molecule = "CC12CCC(C(CO)C1=O)C2(C)C (stereo unspecified)"
class_assignment = "high bin"

[[record]]
molecule = "Oc1ncncc1Br"
class_assignment = "high bin"

[[record]]
molecule = "C=CCOC(CO)CO"
class_assignment = "high bin"


###

study conditions: 20 °C
readout: solubility (mM)

[[record]]
compound = "Oc1cccc2ccnnc12"
output_unit = "mM"
observed_measurement = 3.9

[[record]]
compound = "O=C(O)Cc1ccccc1C(=O)O"
output_unit = "mM"
observed_measurement = 88.8

[[record]]
compound = "C=CCC1(CC)C(=O)NC(=O)NC1=O"
output_unit = "mM"
observed_measurement = 20.5

[[record]]
compound = "Oc1cnc2ccccc2c1"
output_unit = "mM"
observed_measurement = 4.05

[[record]]
compound = "COCc1ccc(C=O)o1"
output_unit = "mM"
observed_measurement = 317

[[record]]
compound = "O=C(O)c1ccccc1C(=O)c1ccc(Cl)cc1"
output_unit = "mM"
observed_measurement = 1.92

[[record]]
compound = "O=C(O)COc1cccc(Cl)c1"
output_unit = "mM"
observed_measurement = 6.38

[[record]]
compound = "Sc1nnc(S)s1"
output_unit = "mM"
observed_measurement = 176

[[record]]
compound = "O=[N+]([O-])c1ccccc1CO"
output_unit = "mM"
observed_measurement = 32.7

[[record]]
compound = "CCC(=O)OCc1ccc(Cl)cc1Cl"
output_unit = "mM"
observed_measurement = 0.858

[[record]]
compound = "CC(C)COC(=O)c1c(C(=O)O)cccc1[N+](=O)[O-]"
output_unit = "mM"
observed_measurement = 0.898

[[record]]
compound = "Clc1ncc2nccnc2n1"
output_unit = "mM"
observed_measurement = 200

[[record]]
compound = "O=C(OCCO)c1ccccc1O"
output_unit = "mM"
observed_measurement = 69.7

[[record]]
compound = "Cn1cc2nccnc2nc1=O"
output_unit = "mM"
observed_measurement = 123

[[record]]
compound = "C=CCOc1ccccc1C(N)=O"
output_unit = "mM"
observed_measurement = 5.93

[[record]]
compound = "OCC1=C[C@@H](O)[C@@H]2C=CO[C@@H](OC3OC(CO)C(O)C(O)C3O)[C@H]12 (some centres not stated)"
output_unit = "mM"
observed_measurement = 1030

[[record]]
compound = "CCOC(=O)c1ccccc1C(=O)c1ccccc1"
output_unit = "mM"
observed_measurement = 0.393

[[record]]
compound = "O=CC(O)C(O)C(O)[C@H](O)C(O)CO (stereo in doubt)"
output_unit = "mM"
observed_measurement = 476

[[record]]
compound = "OCc1cccc(O)c1"
output_unit = "mM"
observed_measurement = 540

[[record]]
compound = "FC(F)(F)c1nc2ncncc2[nH]1"
output_unit = "mM"
observed_measurement = 354

[[record]]
compound = "c1ccc2c(c1)Nc1ccc3ccccc3c1S2"
output_unit = "mM"
observed_measurement = 0.000267

[[record]]
compound = "CC1(CCN2CCCCC2)NC(=O)NC1=O (configuration not stated)"
output_unit = "mM"
observed_measurement = 151

[[record]]
compound = "NC(=O)C(Br)Br"
output_unit = "mM"
observed_measurement = 87.6

[[record]]
compound = "CCCc1nnc(NS(=O)(=O)c2ccc(N)cc2)s1"
output_unit = "mM"
observed_measurement = 0.493

[[record]]
compound = "c1ncc2n[nH]nc2n1"
output_unit = "mM"
observed_measurement = 586

[[record]]
compound = "O=C(O)C=C(CC(=O)O)C(=O)O"
output_unit = "mM"
observed_measurement = 2450

[[record]]
compound = "O=C(O)c1oc(Cl)c(Cl)c1Cl"
output_unit = "mM"
observed_measurement = 6.04

[[record]]
compound = "C/C=C\\CC1(C/C=C/C)C(=O)NC(=O)NC1=O"
output_unit = "mM"
observed_measurement = 6.35

[[record]]
compound = "CC(C)C1(Br)C(=O)NC(=O)NC1=O"
output_unit = "mM"
observed_measurement = 6.18

[[record]]
compound = "CSc1ncnc2nccnc12"
output_unit = "mM"
observed_measurement = 4.32

[[record]]
compound = "CC(C)C(CC(=O)O)C(=O)O (configuration not stated)"
output_unit = "mM"
observed_measurement = 391

[[record]]
compound = "COc1c(C(=O)O)cc(C(=O)O)cc1C(=O)O"
output_unit = "mM"
observed_measurement = 29.1

[[record]]
compound = "CCCCCCC(O)C(O)C(=O)O (configuration not stated)"
output_unit = "mM"
observed_measurement = 28.4

[[record]]
compound = "O=C(O)CCCP(=O)(O)O"
output_unit = "mM"
observed_measurement = 3170

[[record]]
compound = "CN(CCCCC(=O)O)S(=O)(=O)c1ccccc1"
output_unit = "mM"
observed_measurement = 27.6

[[record]]
compound = "CCC(CC)COC(C)=O"
output_unit = "mM"
observed_measurement = 44.4

[[record]]
compound = "COC(=O)c1ccc([N+](=O)[O-])cc1C(=O)O"
output_unit = "mM"
observed_measurement = 8.79

[[record]]
compound = "CCOC(=O)c1c(C)oc(C)c(C(=O)OCC)c1=O"
output_unit = "mM"
observed_measurement = 29.8

[[record]]
compound = "COc1ncnc2nccnc12"
output_unit = "mM"
observed_measurement = 77.1

[[record]]
compound = "CC(=O)CC1=NCCS1"
output_unit = "mM"
observed_measurement = 69.8

[[record]]
compound = "CN(C)c1ncnc2nccnc12"
output_unit = "mM"
observed_measurement = 95.1

[[record]]
compound = "Cn1cnc2c(=O)n(C)c(=O)n(C)c2c1=O"
output_unit = "mM"
observed_measurement = 10.4

[[record]]
compound = "O=C(O)c1occ(Br)c1Br"
output_unit = "mM"
observed_measurement = 8.15

[[record]]
compound = "CCCCC1(CCCC)C(=O)NC(=O)NC1=O"
output_unit = "mM"
observed_measurement = 1.33

[[record]]
compound = "CC(O)(CCl)CCl"
output_unit = "mM"
observed_measurement = 657

[[record]]
compound = "CSc1ncc2nccnc2n1"
output_unit = "mM"
observed_measurement = 17.5

[[record]]
compound = "O=C(O)CCCC(C(=O)O)(c1ccccc1)c1ccccc1"
output_unit = "mM"
observed_measurement = 0.67

[[record]]
compound = "O=[N+]([O-])Cc1ccc2ccccc2n1"
output_unit = "mM"
observed_measurement = 8.82

[[record]]
compound = "O=C1CC(c2ccccc2)CC(=O)C1[N+](=O)[O-] (configuration not stated)"
output_unit = "mM"
observed_measurement = 21.4

[[record]]
compound = "Nc1nc2c(O)cccc2s1"
output_unit = "mM"
observed_measurement = 12

[[record]]
compound = "Cc1nc2c(=O)[nH]c(=O)n(C)c2nc1C"
output_unit = "mM"
observed_measurement = 7.71

[[record]]
compound = "Cc1ccc(OCC(=O)O)cc1"
output_unit = "mM"
observed_measurement = 7.22

[[record]]
compound = "CCOc1nsc(N)n1"
output_unit = "mM"
observed_measurement = 223

[[record]]
compound = "CN1C(=O)COc2ccccc21"
output_unit = "mM"
observed_measurement = 7.17

[[record]]
compound = "O=C(O)CCP(=O)(O)O"
output_unit = "mM"
observed_measurement = 3170

[[record]]
compound = "CC(=O)C1CC(CC(=O)O)C1(C)C (configuration not stated)"
output_unit = "mM"
observed_measurement = 266

[[record]]
compound = "CN1c2ccccc2Sc2ccccc21"
output_unit = "mM"
observed_measurement = 0.00255

[[record]]
compound = "S=c1[nH]sc(=S)[nH]1"
output_unit = "mM"
observed_measurement = 17.3

[[record]]
compound = "Nc1c(S(=O)(=O)O)cc(S(=O)(=O)O)c2ccc(S(=O)(=O)O)cc12"
output_unit = "mM"
observed_measurement = 480

[[record]]
compound = "CC(=O)NCC(=O)Nc1ccccc1"
output_unit = "mM"
observed_measurement = 27.1

[[record]]
compound = "NC(N)=N/C(N)=N/c1cccc2ccccc12"
output_unit = "mM"
observed_measurement = 4.84

[[record]]
compound = "CC(=O)NC(NC(C)=O)c1ccccc1"
output_unit = "mM"
observed_measurement = 48.5

